Target Entity: Adenosine receptor A1 (Homo sapiens)
Method Summary: Allosteric modulation of human adenosine A1 receptor transfected in CHO FlpIn cells assessed as orthosteric agonist R-PIA-mediated ERK1/2 phosphorylation at 10 uM pretreated 30 mins before R-PIA challenge measured after 1.5 hrs by fluorescence assay
Format: functional, cell-based
Measurement Label: Activity (%)

Nc1scc(-c2cccc(F)c2)c1C(=O)c1ccc(Cl)cc1 :: 90
Nc1scc(-c2cc(C(F)(F)F)cc(C(F)(F)F)c2)c1C(=O)c1ccccc1 :: 93
Nc1scc(-c2cccc(Cl)c2)c1C(=O)c1ccc(Cl)cc1 :: 75
COc1ccc(-c2csc(N)c2C(=O)c2ccc(Cl)cc2)cc1 :: 55
Nc1scc(-c2cccc(Br)c2)c1C(=O)c1ccccc1 :: 76
Nc1scc(-c2cccc(F)c2)c1C(=O)c1ccccc1 :: 52
Nc1scc(-c2ccccc2F)c1C(=O)c1ccc(Cl)cc1 :: 87
Nc1scc(-c2ccc3ccccc3c2)c1C(=O)c1ccc(Cl)cc1 :: 67
COc1cccc(-c2csc(N)c2C(=O)c2ccccc2)c1 :: 34
Nc1scc(-c2cccc([N+](=O)[O-])c2)c1C(=O)c1ccc(Cl)cc1 :: 42

a: Nc1scc(-c2ccc(Br)cc2)c1C(=O)c1ccc(Cl)cc1
b: Nc1scc(-c2cc(C(F)(F)F)cc(C(F)(F)F)c2)c1C(=O)c1ccc(Cl)cc1
Input line: Field: lower Activity | Options: a / b I would appreciate it if you answered with the label of your choice.
Output line: a
(a: 46%, b: 74%)

----------
Target Entity: Adenosine receptor A1 (Homo sapiens)
Method Summary: Allosteric modulation of human adenosine A1 receptor transfected in CHO FlpIn cells assessed as orthosteric agonist R-PIA-mediated ERK1/2 phosphorylation at 3 uM pretreated 30 mins before R-PIA challenge measured after 1.5 hrs by fluorescence assay
Assay type: functional, cell-based
Measurement Label: Activity (%)

// below: answered compounds
Nc1scc(-c2cccc(C(F)(F)F)c2)c1C(=O)c1ccccc1 :: 83
Nc1scc(-c2cc(C(F)(F)F)cc(C(F)(F)F)c2)c1C(=O)c1ccc(Cl)cc1 :: 69
COc1ccc(-c2csc(N)c2C(=O)c2ccc(Cl)cc2)cc1 :: 51
Nc1scc(-c2cccc(F)c2)c1C(=O)c1ccccc1 :: 51

A: Nc1scc(-c2ccc3ccccc3c2)c1C(=O)c1ccccc1
B: Nc1scc(-c2cc(C(F)(F)F)cc(C(F)(F)F)c2)c1C(=O)c1ccccc1
Input line: // which entry has the larger Activity value, A or B ? I would appreciate it if you answered with the label of your choice.
Output line: B

----------
Target Entity: Adenosine receptor A1 (Homo sapiens)
Method Summary: Allosteric modulation of human adenosine A1 receptor transfected in CHO FlpIn cells assessed as orthosteric agonist R-PIA-mediated ERK1/2 phosphorylation at 10 uM pretreated 30 mins before R-PIA challenge measured after 1.5 hrs by fluorescence assay
Assay type: functional, cell-based
Measurement Label: Activity (%)

Nc1scc(-c2ccc([N+](=O)[O-])cc2)c1C(=O)c1ccc(Cl)cc1 :: 52
Nc1scc(-c2cccc(C(F)(F)F)c2)c1C(=O)c1ccccc1 :: 59
Nc1scc(-c2ccc(F)cc2)c1C(=O)c1ccccc1 :: 60
COc1cccc(-c2csc(N)c2C(=O)c2ccc(Cl)cc2)c1 :: 60
Nc1scc(-c2ccc(Cl)cc2)c1C(=O)c1ccc(Cl)cc1 :: 50
Nc1scc(-c2ccc(F)cc2)c1C(=O)c1ccc(Cl)cc1 :: 61
Nc1scc(-c2ccc(Cl)cc2)c1C(=O)c1ccccc1 :: 51
